All values here come from PubChem BioAssay.

experiment: inhibitors of TNFa-induced NFkB p65 translocation, primary screen, imaging, HUVEC, MLSMR starter and 10KST1 sets (AID 438); conditions: HUVEC TNFa-induced p65 nuclear translocation; at 2 µM, stronger effect = higher value, 0% TNFa-plus-vehicle, 100% no-TNFa wells;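 further: compound added about 3h40 before a 20 min TNFalpha stimulation; signal is the nuclear over cytoplasmic p65 intensity ratio per well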
experimental readout: inhibition (%)
Response body: numeric value in %, unit text excluded.

Example compounds with recorded inhibition:
1. O=C(NCc1ccc(F)cc1)c1cc(-c2ccco2)on1 = -17.6
2. CCC1Oc2ccccc2N(CC(=O)Nc2ccc(OC)cc2OC)C1=O (stereo unspecified) = 44.3
3. Cc1cc(NC(=O)CN2CCC(O)(c3cccc(F)c3)CC2)no1 = -53.1
4. Cc1cc(NC(=O)COc2ncnc3sc(C)c(C)c23)no1 = 1.3
5. CN(C)C(=O)CN(c1ccc(F)c(Cl)c1)S(C)(=O)=O = -2.1

Sure, the documented inhibition for CC(=O)c1nnn(-c2nc(N3CCCC3)nc(N(c3ccccc3)c3ccccc3)n2)c1C is 8.9

Noted for COC(=O)c1sccc1NC(=O)c1ccncc1 : its inhibition reads 5.7

Item: CC(Sc1nnc(-c2cc3ccccc3o2)n1-c1ccccc1)C(=O)O (stereo unspecified) | inhibition: 0.8

Value of inhibition reported for the compound O=C(c1ccc(Cl)c(Cl)c1)N1CCOCC1 is -9.1

# inhibition of O=C(CCCCn1c(=O)[nH]c2ccsc2c1=O)NCc1cccnc1 = -1

inhibition measured on Cc1ccc(OC(=O)CCc2c(C)nc3ncnn3c2C)cc1 = -10.5

---

experiment: reduction of polyQ htt aggregates in cells – imaging, exon1htt(103Q)mCFP cells, high-content imaging, primary screen (AID 483); conditions: exon1htt(103Q)mCFP cell line, aggregate imaging, at 2 µM; measured here: cell count, toxicity;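 further: compound exposure lasted 3 days before fixation; percent of the per-plate median nuclei count of sample wells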
experimental readout: nuclei count (%)
Give the quantity in %, number only.

1. COc1ccc(C2C(=O)N(C3CCCCC3)CC(=O)N2Cc2ccco2)cc1 (stereo not given) = 124
2. CCOC(=O)c1c(NC(=O)OC)sc(C(=O)N(C)C)c1C = 103
3. NC(=O)c1c(NC(=O)CSc2nnc(-c3ccco3)n2-c2ccccc2)sc2c1CCC2 = 115
4. CNC(=O)c1c(O)c2cccc3c2n(c1=O)CC3 = 57

Now look at this one.
Query Cn1c(NCc2cccc(Br)c2)nc2ccccc21 yields nuclei count of 103

---

experiment: endothelial E-selectin expression blockers – imaging, HUVEC, immunofluorescence, MLSMR starter and 10KST1 sets, primary screen (AID 487); conditions: HUVEC TNFalpha-induced E-selectin immunofluorescence imaging, at 2 µM; measured here: cell number, toxicity;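 further: 100% = median nuclei count of all wells on the same plate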
experimental readout: nuclei count (%)
The figure you give is taken to be in %; do not add the unit.

1) CC(C)=CC/C=C1\CCC(C(=O)O)C(C(=O)O)C1 (stereo unspecified) = 100

The compound listed as COC(=O)c1ccc(NC(=O)CN2C(=O)CSC2=O)cc1 has a reported nuclei count of 109

The compound CC(C)Cn1cc(C(=O)NCC2CCCO2)c2c3ccccc3n(C)c2c1=O (stereo unspecified) showed nuclei count equal to 107

Item: O=C1CN(c2ccccc2F)C(=O)CN1c1ccccc1F | nuclei count: 89.8

GET /value?item= CC(=O)O[C@]1(C(C)=O)CC[C@H]2[C@@H]3C=C(Cl)C4=CC(=O)CC[C@]4(C)[C@H]3CC[C@@]21C &field=nuclei count returns 126

Sample CN1[C@@H]2CC(OC(=O)[C@H](CO)c3ccccc3)C[C@H]1[C@@H]1O[C@@H]12 (stereo partly specified) ; nuclei count observed: 129

Short answer for O=C(c1cnsn1)N1CCN(c2ccccn2)CC1 : nuclei count was 95.4

---

assay: endothelial E-selectin expression blockers – imaging, HUVEC, immunofluorescence, MLSMR starter and 10KST1 sets, primary screen (AID 487); details: HUVEC TNFalpha-induced E-selectin immunofluorescence imaging, at 2 µM; measured here: cell number, toxicity;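 further: 100% = median nuclei count of all wells on the same plate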
experimental readout: nuclei count (%)
Supply the numeric figure in %, leaving out any unit text.

1) S=c1nc(C2CC2)[nH]c2ccccc12 = 118
2) CCOC(=O)CCC(=O)c1c(C)oc2ccc(OC)cc12 = 118
3) O=C(NCCCN1CCOCC1)C1CC(=O)N(CCc2ccccc2)C1 (stereo unspecified) = 117
4) CCSCCC(NC1=CC(=O)CC(C)(C)C1)C(=O)O (stereo unspecified) = 94.9
5) CCOc1ccccc1N1CCN(c2nc(N)c(C#N)c(CC#N)c2C#N)CC1 = 105

Per the records, this compound ( CC(=O)Nc1ccc(NC2=CC(=O)CC(C)(C)C2)cc1 ) has nuclei count equal to 119

Measured nuclei count, CCOC(=O)CC(NS(=O)(=O)c1ccc(NC(C)=O)cc1)c1ccc(OCC)cc1 (stereo unspecified) : 126

Recorded result, O=C(CCn1nc(-c2ccc(Cl)cc2)ccc1=O)N1CCN(c2ccccn2)CC1 , nuclei count: 98.7

Measured nuclei count of COc1cc2[nH]c(=O)n(CCCCCC(=O)NCCCN3CCCC3=O)c(=O)c2cc1OC : 124

Short answer for COC(=O)c1cc(OC)c(OC)cc1NC(=O)CC1CCCCC1 : nuclei count was 73.5

---

molecular target: Voltage-gated potassium channel subunit beta-2 (Rattus norvegicus) (UniProt P62483); experiment: enhancers of rat Kvbeta2 NADPH turnover – biochemical, NADPH fluorescence, primary screen (AID 623); details: Recombinant KvBeta, NADPH fluorescence decrease slope, 10 min; at 10 µM; stronger effect = lower value;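 further: fluorescence intensity change per second fitted from 20 to 320 s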
Sequence (P62483 whole entry, looked up): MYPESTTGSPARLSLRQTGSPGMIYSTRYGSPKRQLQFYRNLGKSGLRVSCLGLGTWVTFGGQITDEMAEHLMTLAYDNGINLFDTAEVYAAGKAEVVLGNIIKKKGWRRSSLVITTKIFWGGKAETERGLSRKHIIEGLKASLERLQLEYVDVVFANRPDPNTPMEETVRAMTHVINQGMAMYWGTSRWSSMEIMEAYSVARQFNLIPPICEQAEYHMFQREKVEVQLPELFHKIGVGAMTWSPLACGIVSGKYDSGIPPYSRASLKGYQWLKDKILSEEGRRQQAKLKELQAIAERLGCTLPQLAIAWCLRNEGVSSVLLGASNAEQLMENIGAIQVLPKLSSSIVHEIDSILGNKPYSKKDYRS
In this section, each of the compounds is paired with its reported NADPH fluorescence slope.
// no unit, no text: just the number

Some compounds with recorded NADPH fluorescence slope:
1) O=C(CCN1CCc2ccccc2CC1)c1ccc2c(c1)OCCO2 = -5.2e-05
2) Cc1ccccc1-c1noc(N)c1C#N = -2.3e-05

GET /value?item= COC(=O)c1ccc(-c2ccc(CNCC(O)c3ccccc3)o2)cc1 (configuration not stated) &field=NADPH fluorescence slope returns -1.1e-05

The reported value for COc1ccc2c(c1)c(CC(=O)O)c(C)n2C(=O)c1ccc(Cl)cc1 in terms of NADPH fluorescence slope is -6.7e-05

NADPH fluorescence slope measured on O=c1c2c(nc3nc(COc4ccccc4)[nH]n13)CCC2 = -9.7e-06

NADPH fluorescence slope reported for this compound Nc1nc2ccccc2n1/N=C/c1ccc(Br)cc1 : -3.8e-05

// NADPH fluorescence slope lookup, compound = CC(C)CCNC(=O)NC(=O)CSc1nnc(-c2ccccc2F)n1N , result: 9.8e-05

Reported NADPH fluorescence slope of Cc1ncoc1C(=O)Nc1ccccc1C(N)=O : -1.8e-07

Record summary for Cc1nc(SCC(=O)N2CCC(C(N)=O)CC2)n[nH]1 : reported NADPH fluorescence slope = -5.6e-05

---

Listing: fluorescence slope of selected molecules
target: Voltage-gated potassium channel subunit beta-2 (Rattus norvegicus) (UniProt P62483); experiment: inhibitors of rat Kvbeta2 reductase activity – biochemical, NADPH fluorescence, primary screen (AID 622); settings: recombinant KvBeta, 4-cyanobenzaldehyde reduction, at 10 µM, stronger effect = higher value;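 further: slope of raw intensity against log time taken from 70 to 1610 s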
Form field (numeric): enter value without unit.

These recorded examples may help you get a feel for the data.
1. CCCCOC(=O)Nc1nc2ccc(OC)cc2s1 = -0.324
2. COc1ccc(C(=O)N(Cc2ccco2)C(C(=O)NC2CCCC2)c2ccc(O)cc2)cc1OC (configuration not stated) = -0.54
3. CC1=C(C(N)=O)C(c2ccc(Cl)cc2Cl)n2ncnc2N1 (configuration not stated) = -0.558
4. CC(C)c1nc2sc3c(c2c(=O)o1)CCCC3 = -0.376
5. CC1CCN(C(=O)C2CCN(S(=O)(=O)c3cnc[nH]3)CC2)CC1 = -0.553

Voltage-gated potassium channel subunit beta-2 (Rattus norvegicus) (UniProt P62483) assay, molecule COc1ccc(N2CCN(C(=O)CSc3nnc4n3C(C)(C)Cc3ccccc3-4)CC2)cc1 , recorded fluorescence slope = -0.572

Form field fluorescence slope for item CCc1cc(-c2[nH]ncc2-c2ccc3c(c2)OCO3)c(O)cc1O on Voltage-gated potassium channel subunit beta-2 (Rattus norvegicus) (UniProt P62483): -0.572

---

assay: loss of swimming-algae plug formation – whole organism, Chlamydomonas reinhardtii, WT vs cilia-less mutant, absorbance, 96-well, primary screen (AID 463189); conditions: Chlamydomonas reinhardtii gravitaxis, OD600 absorbance, 2 days; at 10 µM; stronger effect = higher value;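 further: 0% = wild type cc124 cells in DMSO and 100% = ciliumless bld1 mutant cells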
experimental readout: inhibition (%)
Numeric only. Scale: %

Guide cases for inhibition, answers given:
1. O=C(O)Cc1c[nH]c2ccc(O)cc12 = -4.32
2. Cc1cccc(C)c1OCC(C)N (stereo not drawn) = 7.46

Cc1ccccc1CNc1ncnc2c1ncn2C1OC(CO)C(O)C1O (stereo not drawn) has a reported inhibition of -2.9

---

target: Muscarinic acetylcholine receptor M4 (Homo sapiens) (UniProt P08173); assay: M4-linked GIRK flux change, two-sided – cell-based, HEK293 M4/GIRK, thallium flux, BTC-AM, M4 allosteric agonist project, primary screen (AID 625); conditions: at 10 µM, actives lie on both sides;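 further: thallium influx through GIRK channels coupled to M4 in HEK293 cells with BTC-AM dye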
Sequence (P08173 whole entry, looked up): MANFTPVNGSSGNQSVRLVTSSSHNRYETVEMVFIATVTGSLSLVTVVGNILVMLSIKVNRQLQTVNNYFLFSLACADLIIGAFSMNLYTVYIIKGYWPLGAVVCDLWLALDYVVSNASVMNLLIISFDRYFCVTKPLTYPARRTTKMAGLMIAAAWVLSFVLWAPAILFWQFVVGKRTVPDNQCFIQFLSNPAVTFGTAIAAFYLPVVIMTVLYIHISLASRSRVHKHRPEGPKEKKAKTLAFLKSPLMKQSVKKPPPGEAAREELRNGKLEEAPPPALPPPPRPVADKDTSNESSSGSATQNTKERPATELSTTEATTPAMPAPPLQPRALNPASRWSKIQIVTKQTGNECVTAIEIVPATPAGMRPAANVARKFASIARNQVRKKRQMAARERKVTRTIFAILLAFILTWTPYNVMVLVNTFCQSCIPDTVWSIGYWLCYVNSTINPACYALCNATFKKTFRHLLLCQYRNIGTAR
Overview of recorded fluorescence slope for various compounds
Give the value as a plain number.

// recorded fluorescence slope for CC(=O)Nc1cccc(NC(=O)CSc2nnnn2C(C)C)c1 : 0.00495

According to the records, this compound CCCCC(CC)C(=O)Nc1ccc(Cl)cn1 (stereo unspecified) displays fluorescence slope of 0.00769

The measured fluorescence slope associated with O=C(NCCCN1CCOCC1)C1CC(=O)N(CCc2ccccc2)C1 (stereo unspecified) reads 0.00479

The reported value for Cc1cc(N/C=C/C(=O)c2cccc3ccccc23)no1 in terms of fluorescence slope is 0.00616

Entry O=c1/c(=C/c2ccccn2)sc2n1CN(c1ccccc1)CN=2 ; fluorescence slope = 0.00773

response.value for COC(=O)c1cc(Br)c(=O)n(CCC2=CCCCC2)c1 (field: fluorescence slope) = 0.00488

fluorescence slope measured on Cc1nnc2ccc(N3CCC4(CC3)OCCO4)nn12 = 0.00635

For record O=C(Nc1cccc(F)c1)N1CC=C(n2c(=O)[nH]c3ccccc32)CC1 the listed fluorescence slope is 0.00517

So, CCn1c(=O)cc(OCC(=O)NCCCN2CC(C)CC(C)C2)c2ccccc21 (stereo unspecified) ? Its fluorescence slope was 0.00485

Looking up CCNC(=O)N1c2ccc(OCC)cc2C(C)=CC1(C)C , I found its fluorescence slope recorded as 0.00404

Briefly, fluorescence slope measured for CNC(=O)c1ccccc1NC(=O)c1c(O)c2c([nH]c1=O)CCCC2 : 0.00682

Note to self: fluorescence slope recorded for O=C(COC(=O)c1cc(S(=O)(=O)N2CCOCC2)ccc1O)NCC1CCCO1 (stereo unspecified) was 0.00615

Short answer for CCN1CCN(C(=O)c2ccc3c(=O)n(CCC4=CCCCC4)c(=O)[nH]c3c2)CC1 : fluorescence slope was 0.00535
